Protein target, amino acids: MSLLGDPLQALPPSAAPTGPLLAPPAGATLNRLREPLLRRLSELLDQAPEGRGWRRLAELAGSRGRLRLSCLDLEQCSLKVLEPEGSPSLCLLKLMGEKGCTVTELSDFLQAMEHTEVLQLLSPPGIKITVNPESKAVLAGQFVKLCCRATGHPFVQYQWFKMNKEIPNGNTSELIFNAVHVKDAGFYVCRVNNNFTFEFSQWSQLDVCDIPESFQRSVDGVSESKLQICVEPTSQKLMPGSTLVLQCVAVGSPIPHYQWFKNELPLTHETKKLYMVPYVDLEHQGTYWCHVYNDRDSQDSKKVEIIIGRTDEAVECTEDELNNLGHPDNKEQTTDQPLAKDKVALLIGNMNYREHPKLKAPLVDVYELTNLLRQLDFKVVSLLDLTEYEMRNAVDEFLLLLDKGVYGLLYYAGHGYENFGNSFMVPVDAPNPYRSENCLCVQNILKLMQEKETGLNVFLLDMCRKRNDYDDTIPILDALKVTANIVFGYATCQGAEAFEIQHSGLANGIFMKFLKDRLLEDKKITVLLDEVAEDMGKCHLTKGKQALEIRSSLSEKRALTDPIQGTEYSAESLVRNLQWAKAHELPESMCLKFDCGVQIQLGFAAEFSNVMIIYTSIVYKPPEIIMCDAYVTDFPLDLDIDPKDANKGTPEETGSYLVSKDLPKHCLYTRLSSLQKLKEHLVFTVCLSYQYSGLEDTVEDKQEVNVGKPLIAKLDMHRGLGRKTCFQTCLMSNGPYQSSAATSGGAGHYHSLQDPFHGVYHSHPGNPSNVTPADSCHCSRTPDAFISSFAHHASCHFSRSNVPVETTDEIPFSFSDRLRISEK
outcomeMeasure: IC50

Worked cases, answers included:
{"compound": "Cc1ccc2cnn(C)c2c1NS(=O)(=O)c1ccc(-c2cc(C(F)(F)F)n[nH]2)nc1", "IC50": "< 400 nM"}
{"compound": "COc1ccc2cnn(C)c2c1N(CCN(C)C)S(=O)(=O)c1ccc(-n2cc(C(F)(F)F)cn2)nc1", "IC50": "< 400 nM"}
{"compound": "CC(O)c1cnn(-c2ccc(S(=O)(=O)Nc3cccc4cnn(C)c34)cn2)c1 (centres unmarked)", "IC50": "> 2500 nM"}
{"compound": "COCCn1ncc2cccc(NS(=O)(=O)c3ccc(-n4nccc4C4CC4)nc3)c21", "IC50": "> 2500 nM"}
{"compound": "Cc1cc(-c2ccc(S(=O)(=O)Nc3cccc4cnn(C)c34)cn2)n(C)n1", "IC50": "> 2500 nM"}
{"compound": "COc1ccc2cnn(C)c2c1NS(=O)(=O)c1ccc(-n2cc(CO)cn2)nc1", "IC50": "400 to 1000 nM"}

In: IC50 for [2H]C([2H])([2H])Oc1ccc2cnn(C)c2c1NS(=O)(=O)c1ccc(-n2cc(Cl)cn2)nc1 ?
Out: < 400 nM

In: IC50 for COc1ccc2cnn(C)c2c1NS(=O)(=O)c1ccc(-n2nc(C(F)(F)F)c3c2CCOC3)nc1 ?
Out: < 400 nM

====

IC50 values for the molecules below.
assayedTarget: MALT1 (Homo sapiens)

{"lineNotation": "COc1ncc2cnn(C)c2c1NS(=O)(=O)c1ccc(-n2cc(C(F)(F)F)cn2)nc1", "IC50": "< 0.4 µM"}

In: IC50 for CC(C)c1ncc(-c2ccc(S(=O)(=O)Nc3cccc4cnn(C)c34)cn2)s1 ?
Out: > 2.5 µM

In: IC50 for COc1ncc2cnn(C)c2c1NS(=O)(=O)c1ccc(-c2nn(C)c3c2COCC3)nc1 ?
Out: > 2.5 µM

In: IC50 for COc1ncc2cnn(C)c2c1NS(=O)(=O)c1ccc(-c2cnn3c2OCCC3)nc1 ?
Out: > 2.5 µM

====

Target chain: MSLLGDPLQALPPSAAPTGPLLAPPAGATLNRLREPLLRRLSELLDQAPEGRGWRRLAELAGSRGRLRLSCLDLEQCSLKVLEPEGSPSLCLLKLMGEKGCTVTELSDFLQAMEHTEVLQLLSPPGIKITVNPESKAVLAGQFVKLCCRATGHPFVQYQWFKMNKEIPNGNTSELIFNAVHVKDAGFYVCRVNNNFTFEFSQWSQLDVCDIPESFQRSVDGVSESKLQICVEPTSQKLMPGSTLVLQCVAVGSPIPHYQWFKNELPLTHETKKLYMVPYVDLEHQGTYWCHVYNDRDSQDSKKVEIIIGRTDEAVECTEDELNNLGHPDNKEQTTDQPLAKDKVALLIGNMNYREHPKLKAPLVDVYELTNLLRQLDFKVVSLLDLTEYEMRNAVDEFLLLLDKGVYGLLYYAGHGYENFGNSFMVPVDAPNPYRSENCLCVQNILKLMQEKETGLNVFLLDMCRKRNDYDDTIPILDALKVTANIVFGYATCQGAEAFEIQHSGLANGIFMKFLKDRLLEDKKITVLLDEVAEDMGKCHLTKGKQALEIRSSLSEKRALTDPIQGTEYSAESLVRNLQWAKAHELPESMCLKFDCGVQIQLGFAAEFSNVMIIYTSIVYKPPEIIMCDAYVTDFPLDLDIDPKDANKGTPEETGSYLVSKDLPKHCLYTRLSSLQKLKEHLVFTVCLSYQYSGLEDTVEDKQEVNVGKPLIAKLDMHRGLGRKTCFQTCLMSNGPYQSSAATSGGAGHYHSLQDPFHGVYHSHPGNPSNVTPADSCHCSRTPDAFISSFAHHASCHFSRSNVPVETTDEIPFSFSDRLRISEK
IC50 values for the compounds below.

Worked cases, answers included:
{"compound": "Cn1ncc2cccc(NS(=O)(=O)c3ccc(-n4ncc5c4CCCC5)nc3)c21 [Example I-227]", "IC50": "1000 to 2500 nM"}
{"compound": "COc1ncc2cnn(C)c2c1NS(=O)(=O)c1ccc(N2C[C@](O)(C(F)(F)F)CC2=O)nc1 [Example I-236]", "IC50": "400 to 1000 nM"}
{"compound": "Cn1ncc2cccc(NS(=O)(=O)c3ccc(-c4cnc(Cl)s4)nc3)c21 [Example I-250]", "IC50": "1000 to 2500 nM"}
{"compound": "CCc1ccc2cnn(C)c2c1NS(=O)(=O)c1ccc(-n2cc(C(F)(F)F)cn2)nc1 [Example I-2]", "IC50": "< 400 nM"}
{"compound": "COc1ccc2cnn(C)c2c1NS(=O)(=O)c1ccc(-c2cnn3c2OCCC3)nc1 [Example I-303]", "IC50": "> 2500 nM"}

In: IC50 for [2H]C([2H])([2H])c1ccc2cnn(C)c2c1NS(=O)(=O)c1ccc(-n2cc(C(F)(F)F)cn2)nc1 [Example I-69] ?
Out: < 400 nM

In: IC50 for COc1ccc2cnn(C)c2c1NS(=O)(=O)c1ccc(-c2nc(C)n[nH]2)nc1 [Example I-166] ?
Out: > 2500 nM

====

assayedTarget: MALT1 (Homo sapiens)
Sequence (Q9UDY8 1-824): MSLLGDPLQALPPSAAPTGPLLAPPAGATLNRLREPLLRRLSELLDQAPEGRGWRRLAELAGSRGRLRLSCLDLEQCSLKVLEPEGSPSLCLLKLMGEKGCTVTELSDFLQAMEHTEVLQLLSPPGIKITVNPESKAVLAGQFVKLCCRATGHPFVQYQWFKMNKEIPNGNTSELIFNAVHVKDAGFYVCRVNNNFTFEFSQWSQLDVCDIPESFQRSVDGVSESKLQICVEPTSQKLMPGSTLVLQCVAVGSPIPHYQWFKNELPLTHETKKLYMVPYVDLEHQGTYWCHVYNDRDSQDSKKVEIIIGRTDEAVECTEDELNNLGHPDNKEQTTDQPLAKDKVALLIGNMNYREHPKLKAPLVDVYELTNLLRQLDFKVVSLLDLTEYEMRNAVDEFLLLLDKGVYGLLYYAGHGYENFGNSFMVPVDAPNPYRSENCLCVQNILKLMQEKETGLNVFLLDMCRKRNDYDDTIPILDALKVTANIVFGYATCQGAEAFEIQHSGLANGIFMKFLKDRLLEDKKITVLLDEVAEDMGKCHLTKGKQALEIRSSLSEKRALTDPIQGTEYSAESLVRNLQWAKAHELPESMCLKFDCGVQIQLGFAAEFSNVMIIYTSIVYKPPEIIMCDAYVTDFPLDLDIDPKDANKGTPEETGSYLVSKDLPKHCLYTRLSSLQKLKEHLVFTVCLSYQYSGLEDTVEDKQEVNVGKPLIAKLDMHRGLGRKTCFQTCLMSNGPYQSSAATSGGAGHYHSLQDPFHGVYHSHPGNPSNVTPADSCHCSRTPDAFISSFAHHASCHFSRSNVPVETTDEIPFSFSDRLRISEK
IC50 values for the compounds below.

In: # query: IC50 | item COc1ccc2cnn(C)c2c1NS(=O)(=O)c1ccc(-n2ncc(C)c2C)nc1 | system: MALT1 (Homo sapiens)
Out: < 400 nM

In: # query: IC50 | item COc1ccc2cnn(C)c2c1NS(=O)(=O)c1ccc(-c2cnn3c2CN(C)CC3)nc1 | system: MALT1 (Homo sapiens)
Out: > 2500 nM

In: # query: IC50 | item Cn1ncc2cccc(NS(=O)(=O)c3ccc(-n4cc5c(n4)CCOC5)nc3)c21 | system: MALT1 (Homo sapiens)
Out: > 2500 nM

In: # query: IC50 | item Cn1ncc2ccc(O)c(NS(=O)(=O)c3ccc(-n4cc(C(F)(F)F)cn4)nc3)c21 | system: MALT1 (Homo sapiens)
Out: < 400 nM
